Listing: phosphorylation enrichment of selected sequences
- Target under test: Jak2 (UniProt O60674)
- Sequence (O60674 whole entry, looked up): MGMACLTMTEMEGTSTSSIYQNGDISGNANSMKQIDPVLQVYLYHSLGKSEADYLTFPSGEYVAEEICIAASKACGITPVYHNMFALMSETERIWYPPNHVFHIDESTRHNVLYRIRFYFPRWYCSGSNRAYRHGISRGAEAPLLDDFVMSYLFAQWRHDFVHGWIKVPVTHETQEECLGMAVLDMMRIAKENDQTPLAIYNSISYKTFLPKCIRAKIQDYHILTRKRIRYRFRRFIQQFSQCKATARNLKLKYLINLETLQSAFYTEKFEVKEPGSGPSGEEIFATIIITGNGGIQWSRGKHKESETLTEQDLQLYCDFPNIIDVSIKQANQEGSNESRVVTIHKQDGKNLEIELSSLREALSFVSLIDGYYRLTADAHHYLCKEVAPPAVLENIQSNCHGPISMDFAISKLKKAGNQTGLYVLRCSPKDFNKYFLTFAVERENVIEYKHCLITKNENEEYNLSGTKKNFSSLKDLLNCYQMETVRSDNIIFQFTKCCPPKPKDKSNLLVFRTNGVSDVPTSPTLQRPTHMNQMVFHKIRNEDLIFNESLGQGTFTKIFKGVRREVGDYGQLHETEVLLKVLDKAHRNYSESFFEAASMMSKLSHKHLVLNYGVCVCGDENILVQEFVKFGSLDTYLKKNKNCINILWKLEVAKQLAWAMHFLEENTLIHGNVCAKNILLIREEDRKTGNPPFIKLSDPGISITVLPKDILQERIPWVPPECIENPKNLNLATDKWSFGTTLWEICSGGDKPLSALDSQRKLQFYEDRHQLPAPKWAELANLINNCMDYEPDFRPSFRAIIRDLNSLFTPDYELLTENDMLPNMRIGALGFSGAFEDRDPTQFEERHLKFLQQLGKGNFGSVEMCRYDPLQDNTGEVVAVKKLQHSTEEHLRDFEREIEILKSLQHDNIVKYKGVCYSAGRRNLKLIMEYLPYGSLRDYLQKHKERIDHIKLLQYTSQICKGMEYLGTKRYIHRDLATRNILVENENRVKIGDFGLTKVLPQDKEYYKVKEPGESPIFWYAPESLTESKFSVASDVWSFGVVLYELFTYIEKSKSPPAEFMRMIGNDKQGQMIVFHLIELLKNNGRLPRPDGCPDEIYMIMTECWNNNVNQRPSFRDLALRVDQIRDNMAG
- Test description: phosphorylation enrichment, bacterial display (enrichment ratio); higher = better substrate or ligand; peptides without Tyr show the background;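 further: 11-residue human phosphosite peptides and single-mutation variants displayed on the E. coli surface, counted by deep sequencing, each peptide's frequency after selection divided by its frequency in the unselected input library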;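 further: frequency after pTyr selection over input frequency; kinase dosed for 20-30% of maximal phosphorylation in three min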
Output spec: single numeric token, no unit.

Some solved entries appear below for comparison.
Sequence entry: ASIVDYNIIGW [MYH7_Y588_G584S]
Target under test: Jak2 (UniProt O60674)
phosphorylation enrichment: 0.947
--
Sequence entry: STTSDYQWDFS [MTDH_Y364_V368F]
Target under test: Jak2 (UniProt O60674)
phosphorylation enrichment: 1.14
--
Sequence entry: AVAFLYFKSIG [ADGRL4_Y301_V300L_YF]
Target under test: Jak2 (UniProt O60674)
phosphorylation enrichment: 1.33

// sample CLAQRYLIWEC [SCN5A_Y694_R689C] , its phosphorylation enrichment was 1.03

Sure, the documented phosphorylation enrichment for FETDFYRKGGK [INSR_Y1190_YF] is 0.6

sequence AGTIPYHAHLD [ASS1_Y291_L290P] , phosphorylation enrichment observed: 0.447
